# MEASURED_ON: native CB1 receptors (Rattus norvegicus)
# Sequence (P20272 whole entry): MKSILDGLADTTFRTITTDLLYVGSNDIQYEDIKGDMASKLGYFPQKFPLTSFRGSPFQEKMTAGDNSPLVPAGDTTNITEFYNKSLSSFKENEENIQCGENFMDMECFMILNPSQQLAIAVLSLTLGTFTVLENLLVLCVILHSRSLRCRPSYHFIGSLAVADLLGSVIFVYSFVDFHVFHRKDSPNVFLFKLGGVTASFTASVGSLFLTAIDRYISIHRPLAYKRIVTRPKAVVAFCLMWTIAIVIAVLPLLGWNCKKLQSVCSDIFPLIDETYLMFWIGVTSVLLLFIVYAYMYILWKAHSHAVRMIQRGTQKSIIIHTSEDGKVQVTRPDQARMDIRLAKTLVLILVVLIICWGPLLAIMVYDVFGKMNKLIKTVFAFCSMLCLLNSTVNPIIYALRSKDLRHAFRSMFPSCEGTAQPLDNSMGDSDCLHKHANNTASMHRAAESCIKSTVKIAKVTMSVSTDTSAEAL
# TEST_NAME: CB1 receptor rat binding assay ([3H]SR141716A, rat brain membranes)
# EXPERIMENTAL_SETUP: rat brain membranes, [3H]SR141716A
Respond with Condition met for Binding rat Inh % values of 90% and above, Condition not met for values below.

COMPOUND: Cc1ccsc1C1=Nc2cc(C(=O)NN3CCCCC3)ccc2Sc2ccccc21 [drawing 1182]
CAT: Condition not met

COMPOUND: Cc1ccsc1C1=Nc2cc(C(=O)NC3CCCCC3)ccc2Sc2ccccc21 [drawing 1531]
CAT: Condition not met

COMPOUND: O=C(NC1CCCC1)c1ccc2c(c1)N=C(c1ccc(F)cc1)c1ccccc1S2 [drawing 1268]
CAT: Condition not met

COMPOUND: CC(C)NC(=O)c1ccc2c(c1)N=C(c1cccc(Cl)c1)c1ccccc1S2 [drawing 1269]
CAT: Condition not met

COMPOUND: O=C(NCCc1ccncc1)c1ccc2c(c1)N=C(c1ccc(Cl)c(Cl)c1)c1ccccc1S2 [drawing 1497]
CAT: Condition met

COMPOUND: Cc1ccsc1C1=Nc2cc(C(=O)NCc3cccs3)ccc2Sc2ccccc21 [drawing 1344]
CAT: Condition met

COMPOUND: O=C(NCc1ccccn1)c1ccc2c(c1)N=C(c1ccc(Cl)cc1)c1ccccc1S2 [drawing 1270]
CAT: Condition met

COMPOUND: O=C(NCCC(F)(F)F)c1ccc2c(c1)N=C(c1ccc(Cl)cc1)c1ccccc1S2 [drawing 1360]
CAT: Condition met

COMPOUND: Cc1ccc(CNC(=O)c2ccc3c(c2)N=C(c2ccc(F)cc2)c2ccccc2S3)o1 [drawing 1239]
CAT: Condition met

COMPOUND: CCOCCNC(=O)c1ccc2c(c1)N=C(c1ccc(Cl)cc1)c1ccccc1S2 [drawing 1504]
CAT: Condition not met

COMPOUND: O=C(NC1CCCC1)c1ccc2c(c1)N=C(c1ccc(Cl)c(Cl)c1)c1ccccc1S2 [drawing 1399]
CAT: Condition not met

COMPOUND: O=C(NN1CCCCC1)c1ccc2c(c1)N=C(c1ccc(Cl)cn1)c1ccccc1S2 [drawing 1373]
CAT: Condition met

COMPOUND: O=C(NCc1cccnc1)c1ccc2c(c1)N=C(c1ccc(Br)cc1)c1ccccc1S2 [drawing 1180]
CAT: Condition not met

COMPOUND: O=C(NN1CCCCCC1)c1ccc2c(c1)N=C(c1ccc(Cl)cc1F)c1ccccc1S2 [drawing 1386]
CAT: Condition not met

COMPOUND: CCCCNC(=O)c1ccc2c(c1)N=C(c1ccc(Cl)c(F)c1)c1ccccc1S2 [drawing 1274]
CAT: Condition met

COMPOUND: Cc1csc(CNC(=O)c2ccc3c(c2)N=C(c2ccc(F)cc2)c2ccccc2S3)c1 [drawing 1430]
CAT: Condition not met

COMPOUND: CC(C)CNC(=O)c1ccc2c(c1)N=C(c1cccc(F)c1)c1ccccc1S2 [drawing 1490]
CAT: Condition not met

COMPOUND: CC(C)CCNC(=O)c1ccc2c(c1)N=C(c1ccccc1Cl)c1ccccc1S2 [drawing 1188]
CAT: Condition met

COMPOUND: O=C(NCCc1ccccn1)c1ccc2c(c1)N=C(c1ccc(Cl)cc1)c1ccccc1S2 [drawing 1340]
CAT: Condition not met

COMPOUND: O=C(NN1CCCC1)c1ccc2c(c1)N=C(c1ccc(Cl)cc1)c1ccccc1S2 [drawing 1502]
CAT: Condition not met

COMPOUND: O=C(NCc1cccnc1)c1ccc2c(c1)N=C(c1ccc(Cl)cc1)c1ccccc1S2 [drawing 1260]
CAT: Condition not met

COMPOUND: Cc1ccsc1C1=Nc2cc(C(=O)NC(C)C)ccc2Sc2ccccc21 [drawing 1478]
CAT: Condition not met

COMPOUND: CCOCCNC(=O)c1ccc2c(c1)N=C(c1ccc(F)cc1)c1ccccc1S2 [drawing 1446]
CAT: Condition not met

COMPOUND: CC(C)CNC(=O)c1ccc2c(c1)N=C(c1ccc(Cl)s1)c1ccc(Cl)cc1S2 [drawing 1200]
CAT: Condition met

COMPOUND: Cc1csc(CNC(=O)c2ccc3c(c2)N=C(c2cccc(C)n2)c2ccccc2S3)c1 [drawing 1263]
CAT: Condition met

COMPOUND: CC(C)CNC(=O)c1ccc2c(c1)N=C(c1cccc(Cl)c1)c1ccccc1S2 [drawing 1361]
CAT: Condition met
